# Assay: Phase 1 DDI study 004 part A: lemborexant plasma PK with/without rifampin
# Assay type: in vivo, human
# Test settings: human, plasma, 10 mg, Cmax, Mean (SD), lemborexant 10 mg alone, rifampin cohort
Measured parameter: Cmax (ng/mL)
Quick reminder: number only, in ng/mL, skip the unit.

Q: Name the recorded Cmax for Cc1ncc(OC[C@@]2(c3cccc(F)c3)C[C@H]2C(=O)Nc2ccc(F)cn2)c(C)n1 .
A: 58.9

---

# Assay: Phase 1 DDI study 004 part A: lemborexant plasma PK with/without rifampin
# Assay type: in vivo, human
# Test settings: human, plasma, 10 mg, AUC0‐t, Mean (SD), lemborexant 10 mg alone, rifampin cohort
Measured parameter: AUC (ng·h/mL)
The reply should contain only the number, in ng·h/mL.

Q: Can you look up the measured AUC of Cc1ncc(OC[C@@]2(c3cccc(F)c3)C[C@H]2C(=O)Nc2ccc(F)cn2)c(C)n1 for me?
A: 409
